System: C. albicans ATCC 38247
Test: MIC, antifungal assay, C. albicans
Format: cell-based, Candida albicans
From the text: It vitro biological activity data were collected for a variety of microorganisms, including Bacillus cereus (ATCC 11778), Staphylococcus aureus (ATCC 33591; ATCC 27660, a methicillin resistant strain (MRSA); ATCC 13709, a methicillin sensitive strain (MSSA)), Enterococcus faecalis (ATCC 29212), and Streptococcus pneumoniae (ATCC 49619). Additionally, antifungal activity data were collected for Candida albicans (ATCC 38247). […]
Form field: Minimum Inhibitory Concentration (MIC), organism B (one value per entry).
readoutKind: Minimum Inhibitory Concentration (MIC), organism B

Cn1cc(NC(=O)c2cc3ccccc3cn2)cc1C(=O)Nc1cc(-c2nc3ccncc3[nH]2)n(C)c1 [Compound A-14] = >32 µg/mL
Cn1cc(NC(=O)c2cc(NC(=O)c3sccc3Cl)cn2CCCN2CCSCC2)cc1-c1nc2ccccc2[nH]1 [Compound A-51] = >32 µg/mL
CN(C)CCCn1cc(NC(=O)c2cc3ccccc3cn2)cc1C(=O)Nc1cc(-c2nc3ncccc3[nH]2)n(C)c1 [Compound A-12] = >32 µg/mL
Cn1cc(NC(=O)c2cc(NC(=O)c3ccc(Cl)cc3F)cn2CCCN2CCC(F)(F)CC2)cc1-c1nc2cccnc2[nH]1 [Compound A-43] = >32 µg/mL
CC1CCN(CCCn2cc(NC(=O)c3ccc(Cl)cc3F)cc2C(=O)Nc2cc(-c3nc4cccnc4[nH]3)n(C)c2)CC1 [Compound A-41] = >32 µg/mL

###

tested on: C. albicans ATCC 38247; experiment: MIC, antifungal assay, C. albicans; assay type: cell-based, Candida albicans
readoutKind: Minimum Inhibitory Concentration (MIC), organism B

Cn1cc(NC(=O)c2cc(NC(=O)c3sccc3Cl)cn2CCCN(CCO)CCO)cc1-c1nc2ccccc2[nH]1 [Compound A-55] = >32 µg/mL
CN(C)CCCn1cc(NC(=O)c2sc3ccccc3c2Cl)cc1C(=O)Nc1cc(-c2nc3ncccc3[nH]2)n(C)c1 [Compound A-28] = >32 µg/mL
Cc1ccc2nc(-c3cc(NC(=O)c4cc(NC(=O)c5cc6ccccc6cn5)cn4C)cn3C)[nH]c2c1 [Compound A-2] = >32 µg/mL
Cn1cc(NC(=O)c2cc3ccccc3cn2)cc1C(=O)Nc1cc(-c2nc3ccc(NC(=O)C(F)(F)F)cc3[nH]2)n(C)c1 [Compound A-5] = >32 µg/mL
Cn1cc(NC(=O)c2cc3ccccc3cn2)cc1C(=O)Nc1cc(-c2nc3ccc(N)cc3[nH]2)n(C)c1 [Compound A-8] = >32 µg/mL
Cn1cc(NC(=O)c2cc(NC(=O)c3sccc3Cl)cn2CCCN2CCCCC2)cc1-c1nc2ccccc2[nH]1 [Compound A-49] = + (12 ≦ MIC ≦ 32 μg/mL)
COc1cc(F)ccc1C(=O)Nc1cc(C(=O)Nc2cc(-c3nc4ccccc4[nH]3)n(C)c2)n(CCCN(C)C)c1 [Compound A-20] = + (12 ≦ MIC ≦ 32 μg/mL)
Cn1cc(NC(=O)c2cc(NC(=O)c3ccc(Cl)cc3F)cn2CCCN(CCO)CCO)cc1-c1nc2ccccc2[nH]1 [Compound A-36] = + (12 ≦ MIC ≦ 32 μg/mL)
Cn1cc(NC(=O)c2cc(NC(=O)c3ccc(Cl)cc3F)cn2CCCN2CCCCC2)cc1-c1nc2ccccc2[nH]1 [Compound A-32] = + (12 ≦ MIC ≦ 32 μg/mL)
Cn1cc(NC(=O)c2cc3ccccc3cn2)cc1C(=O)Nc1cc(-c2nc3ccc(OCCN4CCOCC4)cc3[nH]2)n(C)c1 [Compound A-10] = >32 µg/mL
COc1ccc2nc(-c3cc(NC(=O)c4cc(NC(=O)c5cc6ccccc6cn5)cn4C)cn3C)[nH]c2c1 [Compound A-4] = >32 µg/mL
CN(C)CCCn1cc(NC(=O)c2ccc(Cl)cc2F)cc1C(=O)Nc1cc(-c2nc3cccnc3[nH]2)n(C)c1 [Compound A-39] = + (12 ≦ MIC ≦ 32 μg/mL)
CN(C)CCCn1cc(NC(=O)c2ccc(F)cc2F)cc1C(=O)Nc1cc(-c2nc3ncccc3[nH]2)n(C)c1 [Compound A-17] = >32 µg/mL

###

tested on: S. aureus ATCC 13709; assay: MIC, NCCLS broth microdilution, S. aureus MSSA; format: cell-based, Staphylococcus aureus; conditions: S. aureus ATCC 13709, methicillin sensitive strain (MSSA)
readoutKind: Minimum Inhibitory Concentration (MIC), organism D

Cn1cc(NC(=O)c2cc(NC(=O)c3sc4ccccc4c3Cl)cn2CCCN2CCC(F)(F)CC2)cc1-c1nc2ccccc2[nH]1 = + (12 ≦ MIC ≦ 32 μg/mL)
Cn1cc(NC(=O)c2cc(NC(=O)c3sccc3Cl)cn2CCC[n+]2ccccc2)cc1-c1nc2ccccc2[nH]1 = + (12 ≦ MIC ≦ 32 μg/mL)
Cn1cc(NC(=O)c2cc(NC(=O)c3sccc3Cl)cn2CCCN2CCCCC2)cc1-c1nc2ccccc2[nH]1 = +++ (MIC ≦ 4 μg/mL)
CN(C)CCCn1cc(NC(=O)c2cc3ccccc3cn2)cc1C(=O)Nc1cc(-c2nc3ccccc3[nH]2)n(C)c1 = +++ (MIC ≦ 4 μg/mL)
Cn1cc(NC(=O)c2cc3ccccc3cn2)cc1C(=O)Nc1cc(-c2nc3ccc(NC(=O)CCN4CCOCC4)cc3[nH]2)n(C)c1 = +++ (MIC ≦ 4 μg/mL)
Cn1cc(NC(=O)c2cc(NC(=O)c3ccc(Cl)cc3F)cn2CCCN2CCC(O)CC2)cc1-c1nc2ccccc2[nH]1 = +++ (MIC ≦ 4 μg/mL)

###

tested on: B. cereus ATCC 11778; test: MIC, NCCLS broth microdilution, B. cereus; format: cell-based, Bacillus cereus
readoutKind: Minimum Inhibitory Concentration (MIC), organism A

CN(C)CCCn1cc(NC(=O)c2ccc(F)cc2F)cc1C(=O)Nc1cc(-c2nc3ccncc3[nH]2)n(C)c1 = + (12 ≦ MIC ≦ 32 μg/mL)
Cn1cc(NC(=O)c2cc(NC(=O)c3sccc3Cl)cn2CCCN2CCC(O)CC2)cc1-c1nc2ccccc2[nH]1 = +++ (MIC ≦ 4 μg/mL)
Cn1cc(NC(=O)c2cc(NC(=O)c3ccc(Cl)cc3F)cn2CCCN2CCC(O)CC2)cc1-c1nc2ccccc2[nH]1 = +++ (MIC ≦ 4 μg/mL)
Cn1cc(NC(=O)c2cc(NC(=O)c3ccc(Cl)cc3F)cn2CCCN2CCC(F)(F)CC2)cc1-c1nc2ccccc2[nH]1 = +++ (MIC ≦ 4 μg/mL)
Cn1cc(NC(=O)c2cc(NC(=O)c3sc4ccccc4c3Cl)cn2CCC[n+]2ccccc2)cc1-c1nc2ccccc2[nH]1 = + (12 ≦ MIC ≦ 32 μg/mL)
Cn1cc(NC(=O)c2cc3ccccc3cn2)cc1C(=O)Nc1cc(-c2nc3ccc(Cl)cc3[nH]2)n(C)c1 = +++ (MIC ≦ 4 μg/mL)
CN(C)CCCn1cc(NC(=O)c2cc3ccccc3cn2)cc1C(=O)Nc1cc(-c2nc3ccncc3[nH]2)n(C)c1 = +++ (MIC ≦ 4 μg/mL)

###

tested on: S. aureus ATCC 13709; test: MIC, NCCLS broth microdilution, S. aureus MSSA; assay type: cell-based, Staphylococcus aureus; conditions: S. aureus ATCC 13709, methicillin sensitive strain (MSSA)
readoutKind: Minimum Inhibitory Concentration (MIC), organism D

Cn1cc(NC(=O)c2cc(NC(=O)c3sccc3Cl)cn2CCCN2CCC(F)(F)CC2)cc1-c1nc2ccccc2[nH]1 [Compound A-54] = +++ (MIC ≦ 4 μg/mL)
Cn1cc(NC(=O)c2cc(NC(=O)c3ccc(Cl)cc3F)cn2CCCN2CCSCC2)cc1-c1nc2ccccc2[nH]1 [Compound A-33] = +++ (MIC ≦ 4 μg/mL)
CN(C)CCCn1cc(NC(=O)c2sc3ccccc3c2Cl)cc1C(=O)Nc1cc(-c2nc3ccccc3[nH]2)n(C)c1 [Compound A-22] = ++ (4 < MIC < 12 μg/mL)
CN(C)CCCn1cc(NC(=O)c2ccc(F)cc2F)cc1C(=O)Nc1cc(-c2nc3ccccc3[nH]2)n(C)c1 [Compound A-16] = +++ (MIC ≦ 4 μg/mL)
Cn1cc(NC(=O)c2cc(NC(=O)c3sccc3Cl)cn2CCCN2CCOCC2)cc1-c1nc2ccccc2[nH]1 [Compound A-50] = +++ (MIC ≦ 4 μg/mL)
Cn1cc(NC(=O)c2cc(NC(=O)c3ccc(Cl)cc3F)cn2CCCN(CCO)CCO)cc1-c1nc2ccccc2[nH]1 [Compound A-36] = ++ (4 < MIC < 12 μg/mL)
Cn1cc(NC(=O)c2cc(NC(=O)c3ccc(Cl)cc3F)cn2CCCN2CCC(F)(F)CC2)cc1-c1nc2ccccc2[nH]1 [Compound A-35] = +++ (MIC ≦ 4 μg/mL)
CN(C)CCCn1cc(NC(=O)c2ccc(Cl)cc2F)cc1C(=O)Nc1cc(-c2nc3cccnc3[nH]2)n(C)c1 [Compound A-39] = +++ (MIC ≦ 4 μg/mL)
COc1cc(F)ccc1C(=O)Nc1cc(C(=O)Nc2cc(-c3nc4ccccc4[nH]3)n(C)c2)n(CCCN(C)C)c1 [Compound A-20] = +++ (MIC ≦ 4 μg/mL)
CN(C)CCCn1cc(NC(=O)c2cc3ccccc3cn2)cc1C(=O)Nc1cc(-c2nc3ncccc3[nH]2)n(C)c1 [Compound A-12] = +++ (MIC ≦ 4 μg/mL)
Cn1cc(NC(=O)c2cc3ccccc3cn2)cc1C(=O)Nc1cc(-c2nc3cc(O)ccc3[nH]2)n(C)c1 [Compound A-6] = +++ (MIC ≦ 4 μg/mL)
Cn1cc(NC(=O)c2cc(NC(=O)c3sc4ccccc4c3Cl)cn2CCCN2CCCCC2)cc1-c1nc2ccccc2[nH]1 [Compound A-23] = +++ (MIC ≦ 4 μg/mL)
Cn1cc(NC(=O)c2cc3ccccc3cn2)cc1C(=O)Nc1cc(-c2nc3ccc(NC(=O)C(F)(F)F)cc3[nH]2)n(C)c1 [Compound A-5] = +++ (MIC ≦ 4 μg/mL)
CN(C)CCCn1cc(NC(=O)c2cc3ccccc3cn2)cc1C(=O)Nc1cc(-c2nc3ccncc3[nH]2)n(C)c1 [Compound A-13] = +++ (MIC ≦ 4 μg/mL)
Cc1ccc2nc(-c3cc(NC(=O)c4cc(NC(=O)c5cc6ccccc6cn5)cn4C)cn3C)[nH]c2c1 [Compound A-2] = +++ (MIC ≦ 4 μg/mL)
Cn1cc(NC(=O)c2sccc2Cl)cc1C(=O)Nc1cc(-c2nc3ccccc3[nH]2)n(C)c1 [Compound A-47] = +++ (MIC ≦ 4 μg/mL)
Cn1cc(NC(=O)c2cc3ccccc3cn2)cc1C(=O)Nc1cc(-c2nc3ccncc3[nH]2)n(C)c1 [Compound A-14] = +++ (MIC ≦ 4 μg/mL)
CN(C)CCCn1cc(NC(=O)c2sccc2Cl)cc1C(=O)Nc1cc(-c2nc3ncncc3[nH]2)n(C)c1 [Compound A-63] = + (12 ≦ MIC ≦ 32 μg/mL)
CN(C)CCCn1cc(NC(=O)c2ccc(Cl)cc2F)cc1C(=O)Nc1cc(-c2nc3cncnc3[nH]2)n(C)c1 [Compound A-46] = +++ (MIC ≦ 4 μg/mL)
Cn1cc(NC(=O)c2cc(NC(=O)c3sccc3Cl)cn2CCCN(CCO)CCO)cc1-c1nc2ccccc2[nH]1 [Compound A-55] = + (12 ≦ MIC ≦ 32 μg/mL)
CN(C)CCCn1cc(NC(=O)c2ccc(F)cc2F)cc1C(=O)Nc1cc(-c2nc3ncncc3[nH]2)n(C)c1 [Compound A-19] = + (12 ≦ MIC ≦ 32 μg/mL)
Cn1cc(NC(=O)c2cc(NC(=O)c3ccc(Cl)cc3F)cn2CCCN2CCCCC2)cc1-c1nc2ccccc2[nH]1 [Compound A-32] = +++ (MIC ≦ 4 μg/mL)
CN(C)CCCn1cc(NC(=O)c2cc3ccccc3cn2)cc1C(=O)Nc1cc(-c2nc3ncncc3[nH]2)n(C)c1 [Compound A-15] = + (12 ≦ MIC ≦ 32 μg/mL)
